- System: CEM cells HIV-1 protection, formazan growth assay
- experimental.details: NCI AIDS Antiviral Assay
- condition.description: measured here: growth of uninfected CEM cells
pIC50: −log10 of the molar value.
property: pIC50

pIC50 reading for N/C(CCCC/C(N)=N/O)=N\O : < 3.70

Form field pIC50, entry C#CCN(N=O)C(=O)NCCCCC(NC(=O)OCc1ccccc1)C(=O)OCc1ccccc1 (configuration not stated) : < 4.55

So for COc1cccc2c1[C@]1(O)C(O)CCCC21 (some centres not stated) , the logged pIC50 turned out to be < 3.70

Notebook: CCCCCCCCCCc1c2nc(c(CCCCCCCCCC)c3ccc([nH]3)c(CCCCCCCCCC)c3ccc([nH]3)c(CCCCCCCCCC)c3nc1C=C3)C=C2 , pIC50 read as < 4.00

The recorded pIC50 for entry OCC1NCC(O)C(O)C1O (configuration not stated) equals < 3.70

Sample O=C(n1c(=O)n(-c2ccc([N+](=O)[O-])cc2)c(=O)n1C(=O)C(Cl)(Cl)Cl)C(Cl)(Cl)Cl ; pIC50 observed: < 3.70

The molecule identified as O=C(CC(=O)N1N=C(c2ccccc2)C(N=Nc2ccc(Cl)cc2)C1=O)Nc1ccccc1Cl (configuration not stated) registered its pIC50 at < 4.42
